protocol.notes: Therapeutic index, ratio of IC50 for PHA-stimulated human PBMC cells to IC50 for human JURKAT-TALL cells
Type: cell-based
details: PHA-stimulated PBMC cells versus JURKAT-TALL cells, read-out: Ratio IC50
value.type: selectivity ratio

Query: Find the recorded selectivity ratio belonging to C[C@H]1[C@@H](CC(COP(=O)(Oc2ccccc2)Oc2ccccc2)C[C@H]2O[C@@H]3O[C@@]4(C)CC[C@H]5[C@H](C)CC[C@@H]([C@H]2C)[C@@]35OO4)O[C@@H]2O[C@@]3(C)CC[C@H]4[C@H](C)CC[C@@H]1[C@@]24OO3 (some centres undefined) and report it.
Response: 14.8

Query: // next record C[C@H]1[C@H](OC(=O)CCC(=O)O)O[C@@H]2O[C@@]3(C)CC[C@H]4[C@H](C)CC[C@@H]1[C@@]24OO3 [SODIUM ARESUNATE]
Response: 4

Query: // next record C[C@H]1[C@@H](CC(COP(=S)(Oc2ccccc2)Oc2ccccc2)C[C@H]2O[C@@H]3O[C@@]4(C)CC[C@H]5[C@H](C)CC[C@@H]([C@H]2C)[C@@]35OO4)O[C@@H]2O[C@@]3(C)CC[C@H]4[C@H](C)CC[C@@H]1[C@@]24OO3 (some centres undefined)
Response: > 22.9

Query: // next record C[C@H]1[C@@H](CC(COP2(=S)Oc3ccccc3-c3ccccc3O2)C[C@H]2O[C@@H]3O[C@@]4(C)CC[C@H]5[C@H](C)CC[C@@H]([C@H]2C)[C@@]35OO4)O[C@@H]2O[C@@]3(C)CC[C@H]4[C@H](C)CC[C@@H]1[C@@]24OO3 (some centres undefined)
Response: > 20.7

###

protocol.notes: Cytotoxicity against human JURKAT-TALL cells after 48 hrs by Alamar Blue assay
Format: functional, cell-based
value.type: pIC50
Quick note: pIC50 values are minus log10 of concentrations in mol/L.

Query: Find the recorded pIC50 belonging to CC(C)c1ccc(OP(=O)(OCC(C[C@H]2O[C@@H]3O[C@@]4(C)CC[C@H]5[C@H](C)CC[C@@H]([C@H]2C)[C@@]35OO4)C[C@H]2O[C@@H]3O[C@@]4(C)CC[C@H]5[C@H](C)CC[C@@H]([C@H]2C)[C@@]35OO4)Oc2ccc(C(C)C)cc2)cc1 (some centres undefined) and report it.
Response: 6.29

Query: // next record C[C@H]1[C@@H](CC(COP(=O)(Oc2ccc(Cl)cc2)Oc2ccc(Cl)cc2)C[C@H]2O[C@@H]3O[C@@]4(C)CC[C@H]5[C@H](C)CC[C@@H]([C@H]2C)[C@@]35OO4)O[C@@H]2O[C@@]3(C)CC[C@H]4[C@H](C)CC[C@@H]1[C@@]24OO3 (some centres undefined)
Response: 6.82

Query: // next record C[C@H]1[C@@H](CC(COP2(=O)Oc3ccccc3-c3ccccc3O2)C[C@H]2O[C@@H]3O[C@@]4(C)CC[C@H]5[C@H](C)CC[C@@H]([C@H]2C)[C@@]35OO4)O[C@@H]2O[C@@]3(C)CC[C@H]4[C@H](C)CC[C@@H]1[C@@]24OO3 (some centres undefined)
Response: 6.66

###

Kindly supply the reported pIC50 values for the records listed here.
protocol.notes: Cytotoxicity against human JURKAT-TALL cells after 48 hrs by Alamar Blue assay
Format: functional, cell-based
Quick note: pIC50 values are minus log10 of concentrations in mol/L.

Query: Find the recorded pIC50 belonging to C[C@H]1[C@@H](CC(COP(=O)(O)Oc2ccccc2)C[C@H]2O[C@@H]3O[C@@]4(C)CC[C@H]5[C@H](C)CC[C@@H]([C@H]2C)[C@@]35OO4)O[C@@H]2O[C@@]3(C)CC[C@H]4[C@H](C)CC[C@@H]1[C@@]24OO3 (stereo partly drawn) and report it.
Response: 5.13

Query: // next record C[C@H]1[C@@H](CC(COP2(=S)Oc3ccccc3-c3ccccc3O2)C[C@H]2O[C@@H]3O[C@@]4(C)CC[C@H]5[C@H](C)CC[C@@H]([C@H]2C)[C@@]35OO4)O[C@@H]2O[C@@]3(C)CC[C@H]4[C@H](C)CC[C@@H]1[C@@]24OO3 (stereo partly drawn)
Response: 5.71

Query: // next record C[C@H]1[C@@H](CC(COP(=O)(Oc2ccccc2)Oc2ccccc2)C[C@H]2O[C@@H]3O[C@@]4(C)CC[C@H]5[C@H](C)CC[C@@H]([C@H]2C)[C@@]35OO4)O[C@@H]2O[C@@]3(C)CC[C@H]4[C@H](C)CC[C@@H]1[C@@]24OO3 (stereo partly drawn)
Response: 7.00

Query: // next record C[C@H]1[C@@H](CC(COP(=O)(OC2CCCCC2)OC2CCCCC2)C[C@H]2O[C@@H]3O[C@@]4(C)CC[C@H]5[C@H](C)CC[C@@H]([C@H]2C)[C@@]35OO4)O[C@@H]2O[C@@]3(C)CC[C@H]4[C@H](C)CC[C@@H]1[C@@]24OO3 (stereo partly drawn)
Response: 6.54

Query: // next record C[C@H]1[C@@H](CC(COP(=S)(Oc2ccccc2)Oc2ccccc2)C[C@H]2O[C@@H]3O[C@@]4(C)CC[C@H]5[C@H](C)CC[C@@H]([C@H]2C)[C@@]35OO4)O[C@@H]2O[C@@]3(C)CC[C@H]4[C@H](C)CC[C@@H]1[C@@]24OO3 (stereo partly drawn)
Response: 5.76

Query: // next record COc1cccc2c1C(=O)c1c(O)c3c(c(O)c1C2=O)C[C@@](O)(C(=O)CO)C[C@@H]3O[C@H]1C[C@H](N)[C@H](O)[C@H](C)O1
Response: 8.02

Query: // next record Cc1cccc(C)c1OP(=O)(OCC(C[C@H]1O[C@@H]2O[C@@]3(C)CC[C@H]4[C@H](C)CC[C@@H]([C@H]1C)[C@@]24OO3)C[C@H]1O[C@@H]2O[C@@]3(C)CC[C@H]4[C@H](C)CC[C@@H]([C@H]1C)[C@@]24OO3)Oc1c(C)cccc1C (stereo partly drawn)
Response: 6.53

Query: // next record C[C@H]1[C@H](OC(=O)CCC(=O)O)O[C@@H]2O[C@@]3(C)CC[C@H]4[C@H](C)CC[C@@H]1[C@@]24OO3 [SODIUM ARESUNATE]
Response: 5.16

###

protocol.notes: Therapeutic index, ratio of IC50 for PHA-stimulated human PBMC cells to IC50 for human JURKAT-TALL cells
Format: cell-based
details: PHA-stimulated PBMC cells versus JURKAT-TALL cells, read-out: Ratio IC50
Kindly supply the reported selectivity ratio values for the records listed here.
Please reply with the value in numeric form only.

Query: Find the recorded selectivity ratio belonging to C[C@H]1[C@@H](CC(COP2(=O)Oc3ccccc3-c3ccccc3O2)C[C@H]2O[C@@H]3O[C@@]4(C)CC[C@H]5[C@H](C)CC[C@@H]([C@H]2C)[C@@]35OO4)O[C@@H]2O[C@@]3(C)CC[C@H]4[C@H](C)CC[C@@H]1[C@@]24OO3 (stereo not given in full) and report it.
Response: 10.4

Query: // next record C[C@H]1[C@@H](CC(COP(=O)(OC2CCCCC2)OC2CCCCC2)C[C@H]2O[C@@H]3O[C@@]4(C)CC[C@H]5[C@H](C)CC[C@@H]([C@H]2C)[C@@]35OO4)O[C@@H]2O[C@@]3(C)CC[C@H]4[C@H](C)CC[C@@H]1[C@@]24OO3 (stereo not given in full)
Response: 7.1

###

protocol.notes: Therapeutic index, ratio of IC50 for PHA-stimulated human PBMC cells to IC50 for human JURKAT-TALL cells
Assay type: cell-based
details: PHA-stimulated PBMC cells versus JURKAT-TALL cells, read-out: Ratio IC50
value.type: selectivity ratio

Query: Find the recorded selectivity ratio belonging to CC(C)c1ccc(OP(=O)(OCC(C[C@H]2O[C@@H]3O[C@@]4(C)CC[C@H]5[C@H](C)CC[C@@H]([C@H]2C)[C@@]35OO4)C[C@H]2O[C@@H]3O[C@@]4(C)CC[C@H]5[C@H](C)CC[C@@H]([C@H]2C)[C@@]35OO4)Oc2ccc(C(C)C)cc2)cc1 (stereo partly drawn) and report it.
Response: > 78.3

Query: // next record C[C@H]1[C@@H](CC(COP(=O)(Oc2ccc(Cl)cc2)Oc2ccc(Cl)cc2)C[C@H]2O[C@@H]3O[C@@]4(C)CC[C@H]5[C@H](C)CC[C@@H]([C@H]2C)[C@@]35OO4)O[C@@H]2O[C@@]3(C)CC[C@H]4[C@H](C)CC[C@@H]1[C@@]24OO3 (stereo partly drawn)
Response: > 263

Query: // next record Cc1cccc(C)c1OP(=O)(OCC(C[C@H]1O[C@@H]2O[C@@]3(C)CC[C@H]4[C@H](C)CC[C@@H]([C@H]1C)[C@@]24OO3)C[C@H]1O[C@@H]2O[C@@]3(C)CC[C@H]4[C@H](C)CC[C@@H]([C@H]1C)[C@@]24OO3)Oc1c(C)cccc1C (stereo partly drawn)
Response: > 135
